target: Cytochrome P450 2D6 (Homo sapiens) (UniProt P10635); test: Cytochrome panel assay with activity outcomes; settings: recombinant CYP, pro-luciferin dealkylation, luminescence, p450-cyp2d6; series mostly up to 57.1 µM
Sequence (P10635 whole entry, looked up): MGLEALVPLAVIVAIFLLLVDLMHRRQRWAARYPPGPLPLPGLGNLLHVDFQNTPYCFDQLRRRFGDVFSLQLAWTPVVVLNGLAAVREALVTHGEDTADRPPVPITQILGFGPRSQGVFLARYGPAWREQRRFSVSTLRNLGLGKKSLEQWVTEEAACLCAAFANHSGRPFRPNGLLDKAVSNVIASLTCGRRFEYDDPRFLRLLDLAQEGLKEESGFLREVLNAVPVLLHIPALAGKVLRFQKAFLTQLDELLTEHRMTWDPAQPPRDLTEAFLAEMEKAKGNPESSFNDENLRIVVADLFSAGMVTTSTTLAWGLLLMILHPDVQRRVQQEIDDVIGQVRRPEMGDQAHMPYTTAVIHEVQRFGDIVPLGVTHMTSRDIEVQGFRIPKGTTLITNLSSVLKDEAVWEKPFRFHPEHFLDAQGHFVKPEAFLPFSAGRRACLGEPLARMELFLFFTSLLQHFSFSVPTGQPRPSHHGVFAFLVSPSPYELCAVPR
The campaign covered roughly 16,000 compounds. About 2,600 (16%) were called active. Another 20% or so got no clear call; they are omitted. Calls come from the whole dose curve; as a rule, active = well fitted curve in the direction sought with a large enough effect; inconclusive = small, poorly fitted or top-dose-only effect, or effect the other way; inactive = no such curve, though single readings can be large or run the other way. The list is a sample of the results.
Classes used: 1 = active, -1 = inactive

Compound	System under test	Label
Cc1c(C)c2c(C)[nH]nc2oc1=O	Cytochrome P450 2D6 (Homo sapiens) (UniProt P10635)	-1
CCN(C1CCCCC1)S(=O)(=O)c1ccc(S(=O)(=O)NCc2ccncc2)cc1	Cytochrome P450 2D6 (Homo sapiens) (UniProt P10635)	1
O=S(=O)(NCc1cccnc1)c1ccc(Cl)nc1	Cytochrome P450 2D6 (Homo sapiens) (UniProt P10635)	-1
CC(=O)N[C@H](c1ccccc1)[C@@]1(C)C[C@@H]1[C@@H](C)C(=O)Nc1ccc2ccccc2c1	Cytochrome P450 2D6 (Homo sapiens) (UniProt P10635)	1
COc1ccccc1CC(=O)Nc1cc2oc3ccccc3c2cc1OC	Cytochrome P450 2D6 (Homo sapiens) (UniProt P10635)	-1
COC(=O)N1CCC[C@@]2(CCN(C(=O)Nc3cccc(C#N)c3)C2)C1	Cytochrome P450 2D6 (Homo sapiens) (UniProt P10635)	-1
Cc1[nH]c2ccccc2c1CCNC(=O)c1ccc2c(c1[N+](=O)[O-])C(=O)c1ccccc1C2=O	Cytochrome P450 2D6 (Homo sapiens) (UniProt P10635)	1
O=S1(=O)[C@H]([C@H]2CC3c4ccccc4C2c2ccccc23)[C@@H](N2CCCCC2)[C@@H]1c1ccccc1	Cytochrome P450 2D6 (Homo sapiens) (UniProt P10635)	1
COCCCn1nnnc1SCC(=O)N1CCCC1	Cytochrome P450 2D6 (Homo sapiens) (UniProt P10635)	-1
CN(C)Cc1ccccc1-c1cc(-n2ccnc2)ncn1	Cytochrome P450 2D6 (Homo sapiens) (UniProt P10635)	1
CC(C)NC(=O)c1ccc2c(=O)n(Cc3ccco3)c(=S)[nH]c2c1	Cytochrome P450 2D6 (Homo sapiens) (UniProt P10635)	-1
COc1ccc(/C=C2/S/C(=N/N=C3\CC4CCC3(C)C4(C)C)NC2=O)cc1 (stereo not drawn)	Cytochrome P450 2D6 (Homo sapiens) (UniProt P10635)	-1
CN1Cc2c(C(=O)OC(C)(C)C)ncn2-c2ccsc2C1=O	Cytochrome P450 2D6 (Homo sapiens) (UniProt P10635)	-1
CCSc1c(C(=O)NC)ccc2c1C(=O)c1ccccc1C2=O	Cytochrome P450 2D6 (Homo sapiens) (UniProt P10635)	-1
Cc1ccccc1-c1nc(N2CCOCC2)c2ccccc2n1	Cytochrome P450 2D6 (Homo sapiens) (UniProt P10635)	-1
O=C(N/N=C/c1cccc(OC2CSC2)c1)c1ccccc1O	Cytochrome P450 2D6 (Homo sapiens) (UniProt P10635)	-1
CN1C(=O)C[C@H](c2ccccc2)C1=O	Cytochrome P450 2D6 (Homo sapiens) (UniProt P10635)	-1
Cc1ccc(OC(=O)c2oc3ccc(F)cc3c2C)c(C)c1	Cytochrome P450 2D6 (Homo sapiens) (UniProt P10635)	-1
O=C(CCNC(=O)c1ccccc1)OCN1C(=O)c2ccccc2C1=O	Cytochrome P450 2D6 (Homo sapiens) (UniProt P10635)	-1
CCCCCc1nc2c(=O)[nH]c3ccccc3c2o1	Cytochrome P450 2D6 (Homo sapiens) (UniProt P10635)	-1
CC(=O)NC1(c2ccc(F)cc2)CCN(C(=O)Nc2ccc(F)cc2F)CC1	Cytochrome P450 2D6 (Homo sapiens) (UniProt P10635)	-1
CN(C)c1ncc2nc(-c3ccc(Cl)cc3)c(=O)n(C)c2n1	Cytochrome P450 2D6 (Homo sapiens) (UniProt P10635)	-1
Cc1nn(C)c(Cl)c1S(=O)(=O)N[C@@H](c1ccccc1)[C@]1(C)C[C@H]1[C@@H](C)C(=O)Nc1ccc2ccccc2c1	Cytochrome P450 2D6 (Homo sapiens) (UniProt P10635)	-1
O=C(OC(C(=O)NC1CCCC1)c1ccncc1)C1=Cc2ccccc2OC1 (stereo not drawn)	Cytochrome P450 2D6 (Homo sapiens) (UniProt P10635)	-1
COC(=O)[C@@]1(Cc2ccc(F)cc2)[C@H]2c3cc(C(=O)N4CCCC4)n(CCCNc4ncc(C(F)(F)F)cc4Cl)c3C[C@H]2CN1C(=O)c1ccccc1	Cytochrome P450 2D6 (Homo sapiens) (UniProt P10635)	-1
Cc1ccc(S(=O)(=O)N(CC(=O)N/N=C/c2ccc(F)cc2)c2cccc3cccnc23)cc1	Cytochrome P450 2D6 (Homo sapiens) (UniProt P10635)	-1
C[C@@H](C(=O)Nc1ccc2ccccc2c1)[C@@H]1C[C@@]1(C)[C@@H](N)c1ccccc1	Cytochrome P450 2D6 (Homo sapiens) (UniProt P10635)	1
CNc1nc(-c2ccccc2CN(C)C)nc2ccccc12	Cytochrome P450 2D6 (Homo sapiens) (UniProt P10635)	1
CCOC(=O)CN(C(=O)CCC(=O)Nc1cc(C)on1)C(C(=O)NC1CCCC1)c1cccnc1 (stereo not drawn)	Cytochrome P450 2D6 (Homo sapiens) (UniProt P10635)	-1
COc1ccc(NS(=O)(=O)c2cc(-c3nnnn3C)ccc2OC)cc1	Cytochrome P450 2D6 (Homo sapiens) (UniProt P10635)	-1
CNC(=S)Nc1ccc2nc(C)c(C)nc2c1	Cytochrome P450 2D6 (Homo sapiens) (UniProt P10635)	-1
Cc1cc(C)cc(-n2nnnc2SCC(=O)Nc2nc(-c3ccc(Cl)cc3)cs2)c1	Cytochrome P450 2D6 (Homo sapiens) (UniProt P10635)	-1
COc1ccc(NC(=O)C2(c3ccc(NC(=O)c4ccc(C)cc4)cc3)CCCC2)cc1	Cytochrome P450 2D6 (Homo sapiens) (UniProt P10635)	-1
CC(=O)NCCc1c(Cc2ccccc2)[nH]c2ccccc12	Cytochrome P450 2D6 (Homo sapiens) (UniProt P10635)	-1
S=C(Nc1ccc2cn[nH]c2c1)Nc1ccc2cn[nH]c2c1	Cytochrome P450 2D6 (Homo sapiens) (UniProt P10635)	1
COc1cc2c(cc1NC(=O)c1cc(-c3cccnc3)nc3ccc(C)cc13)oc1ccccc12	Cytochrome P450 2D6 (Homo sapiens) (UniProt P10635)	-1
O=C(NC1(C(F)(F)F)NC(=O)N(Cc2cccnc2)C1=O)c1ccccc1 (stereo not drawn)	Cytochrome P450 2D6 (Homo sapiens) (UniProt P10635)	-1
CC(C)CN1CC[C@@]2(CCCN(C(=O)c3csnn3)C2)C1	Cytochrome P450 2D6 (Homo sapiens) (UniProt P10635)	1
COc1ccc(/C=N/n2c(C)nnc2C)c(OC)c1	Cytochrome P450 2D6 (Homo sapiens) (UniProt P10635)	-1
COCCNC(=O)COc1ccc(Oc2ccccc2)cc1	Cytochrome P450 2D6 (Homo sapiens) (UniProt P10635)	-1
O=C(Nc1ccc2ccccc2c1)[C@@H]1C[C@H]1[C@@H](NP(=O)(c1ccccc1)c1ccccc1)c1ccccc1	Cytochrome P450 2D6 (Homo sapiens) (UniProt P10635)	-1
Cc1cccc(CNc2nc(-c3ccccc3CN(C)C)nc3ccccc23)c1	Cytochrome P450 2D6 (Homo sapiens) (UniProt P10635)	1
CNc1nc(-c2c(C)noc2C)nc2ccccc12	Cytochrome P450 2D6 (Homo sapiens) (UniProt P10635)	-1

Sourced from PubChem BioAssay AID1851
